Biological target: CDC2L2 (human) (UniProt Q9UQ88)
Sequence (Q9UQ88 whole entry, looked up): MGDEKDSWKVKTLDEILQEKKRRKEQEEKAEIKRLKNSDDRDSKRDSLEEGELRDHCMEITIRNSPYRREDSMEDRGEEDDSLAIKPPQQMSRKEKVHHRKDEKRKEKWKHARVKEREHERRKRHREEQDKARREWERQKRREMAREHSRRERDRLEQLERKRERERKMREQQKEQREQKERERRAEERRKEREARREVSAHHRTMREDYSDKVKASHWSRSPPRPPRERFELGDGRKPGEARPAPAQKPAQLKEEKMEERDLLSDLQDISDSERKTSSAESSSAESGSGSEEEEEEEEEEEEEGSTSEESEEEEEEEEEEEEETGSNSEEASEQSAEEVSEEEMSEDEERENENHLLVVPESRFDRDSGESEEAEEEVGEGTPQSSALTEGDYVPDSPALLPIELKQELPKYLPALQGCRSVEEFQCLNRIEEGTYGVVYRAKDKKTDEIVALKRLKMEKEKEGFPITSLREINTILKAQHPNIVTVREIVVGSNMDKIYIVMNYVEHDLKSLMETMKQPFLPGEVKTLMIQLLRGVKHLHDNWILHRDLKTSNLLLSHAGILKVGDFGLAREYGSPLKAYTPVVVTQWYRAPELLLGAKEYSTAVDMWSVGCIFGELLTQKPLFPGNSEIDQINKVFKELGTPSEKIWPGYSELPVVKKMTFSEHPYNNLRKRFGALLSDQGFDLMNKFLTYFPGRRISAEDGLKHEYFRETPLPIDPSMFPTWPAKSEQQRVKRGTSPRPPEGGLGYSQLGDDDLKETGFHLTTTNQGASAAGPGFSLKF
Test: KINOMEscan competition binding
Settings: compound 10.0 µM
Assignment: determine reported kinase still bound, per cent of control for the given compounds.
Give bare numbers, in %.

# structure smiles string, kinase still bound, per cent of control (%)
records = [
    ("CN1C(=O)c2ccccc2N(C)c2nc(NS(=O)(=O)c3ccc(N)cc3)ncc21", 100),
    ("CCN1CCN(Cc2cc(NC(=O)c3cccc4cc(-c5ccc(/C=C6\\SC(=O)NC6=O)o5)ccc34)cc(C(F)(F)F)c2)CC1", 18),
    ("COc1cc(N2CCN(C)CC2)ccc1Nc1ncc2c(n1)N(C)c1ccccc1N(C)C2=O", 100),
    ("COc1cc(N2CCN(C)CC2)ccc1Nc1ncc2c(n1)Nc1ccccc1NC2=O", 100),
    ("COc1cc(N2CCC(O)CC2)ccc1Nc1ncc2c(n1)N1CCc3cccc(c31)C(=O)N2C", 100),
    ("CN1CCN(c2ccc(C(=O)Nc3ncc4c(n3)N(C)c3ccccc3C(=O)N4C)cc2)CC1", 100),
    ("CN1C(=O)c2ccccc2N(C)c2nc(Nc3ccc(N4CCC(O)CC4)cc3)ncc21", 100),
    ("COc1cc(N2CCN(C)CC2)ccc1Nc1ncc2c(n1)N(C)c1sccc1C(=O)N2C", 100),
]

We next turn to a different compound, shown below.
# kinase still bound, per cent of control (compound: O=C1NC(=O)/C(=C/c2c[nH]c(=O)c(-c3ccc(N4CCNCC4)nc3)c2)S1 ) is 95

###

Molecular target: DDR2 (human) (UniProt Q16832)
Sequence (Q16832 whole entry, looked up): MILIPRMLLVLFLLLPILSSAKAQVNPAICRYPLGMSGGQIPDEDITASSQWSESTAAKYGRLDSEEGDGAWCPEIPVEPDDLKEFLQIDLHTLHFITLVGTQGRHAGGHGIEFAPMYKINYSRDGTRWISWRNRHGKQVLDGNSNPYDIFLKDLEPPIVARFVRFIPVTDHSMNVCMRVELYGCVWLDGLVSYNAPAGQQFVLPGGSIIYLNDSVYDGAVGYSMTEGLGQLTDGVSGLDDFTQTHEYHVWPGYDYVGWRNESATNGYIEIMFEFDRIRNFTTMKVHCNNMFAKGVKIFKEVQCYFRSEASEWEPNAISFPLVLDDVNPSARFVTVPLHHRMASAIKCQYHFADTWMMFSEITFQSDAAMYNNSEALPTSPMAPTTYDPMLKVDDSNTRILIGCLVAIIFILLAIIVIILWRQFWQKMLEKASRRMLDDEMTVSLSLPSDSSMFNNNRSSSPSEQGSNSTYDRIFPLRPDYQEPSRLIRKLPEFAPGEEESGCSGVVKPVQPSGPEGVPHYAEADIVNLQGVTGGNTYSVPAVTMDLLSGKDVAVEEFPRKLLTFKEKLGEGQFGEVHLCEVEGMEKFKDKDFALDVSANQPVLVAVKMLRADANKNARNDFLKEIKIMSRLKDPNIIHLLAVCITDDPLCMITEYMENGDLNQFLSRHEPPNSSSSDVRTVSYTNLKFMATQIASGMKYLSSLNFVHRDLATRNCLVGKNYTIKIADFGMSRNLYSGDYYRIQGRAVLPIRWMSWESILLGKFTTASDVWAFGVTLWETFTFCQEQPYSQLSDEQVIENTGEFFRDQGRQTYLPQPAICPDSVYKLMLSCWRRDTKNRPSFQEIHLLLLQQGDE
Experiment: KINOMEscan competition binding
Settings: compound 10.0 µM
measured endpoint: kinase still bound, per cent of control (%)
Give bare numbers, in %.

Example cases with answers are listed next.
# structure smiles string, system, unit of measure, kinase still bound, per cent of control
records = [
    ("CN1C(=O)c2ccccc2N(C)c2nc(NS(=O)(=O)c3ccc(N)cc3)ncc21", "DDR2 (human) (UniProt Q16832)", "%", 98),
    ("COc1cc(N2CCN(C)CC2)ccc1Nc1ncc2c(n1)Nc1ccccc1NC2=O", "DDR2 (human) (UniProt Q16832)", "%", 100),
    ("O=C1NC(=O)/C(=C/c2c[nH]c(=O)c(-c3ccc(N4CCNCC4)nc3)c2)S1", "DDR2 (human) (UniProt Q16832)", "%", 100),
    ("CN1CCN(c2ccc(C(=O)Nc3ncc4c(n3)N(C)c3ccccc3C(=O)N4C)cc2)CC1", "DDR2 (human) (UniProt Q16832)", "%", 100),
    ("CCN1CCN(Cc2cc(NC(=O)c3cccc4cc(-c5ccc(/C=C6\\SC(=O)NC6=O)o5)ccc34)cc(C(F)(F)F)c2)CC1", "DDR2 (human) (UniProt Q16832)", "%", 7.6),
    ("CN1C(=O)c2ccccc2N(C)c2nc(Nc3ccc(N4CCC(O)CC4)cc3)ncc21", "DDR2 (human) (UniProt Q16832)", "%", 96),
    ("Nc1cccc(-c2cc(/C=C3\\SC(=O)NC3=O)c[nH]c2=O)c1", "DDR2 (human) (UniProt Q16832)", "%", 33),
    ("COc1cc(N2CCN(C)CC2)ccc1Nc1ncc2c(n1)N(C)c1ccccc1N(C)C2=O", "DDR2 (human) (UniProt Q16832)", "%", 100),
    ("COc1cc(N2CCN(C)CC2)ccc1Nc1ncc2c(n1)N(C)c1sccc1C(=O)N2C", "DDR2 (human) (UniProt Q16832)", "%", 91),
]

Moving on to another compound below.
Item COc1cc(N2CCC(O)CC2)ccc1Nc1ncc2c(n1)N1CCc3cccc(c31)C(=O)N2C ; assay system DDR2 (human) (UniProt Q16832); kinase still bound, per cent of control reported as 90
